Recorded pIC50 for molecules tested on Thromboxane-A synthase (Homo sapiens), drawn from a number of studies.
Reminder that pIC50 is minus the log10 of a molar concentration.

// returns reported pIC50 for input O=C(O)CCCCO/N=C(\c1ccccc1)c1cncnc1
7.12

// returns reported pIC50 for input N#Cc1ccc([C@H]2OC[C@@H](C/C=C\CCC(=O)O)[C@@H](c3cccnc3)O2)cc1
7.70

// returns reported pIC50 for input Cc1c(Cn2ccnc2)n(CCCNS(=O)(=O)c2ccc(F)cc2)c2ccc(C(=O)O)cc12
7.82

// returns reported pIC50 for input CC(C)(CCCCOc1ccc(/C(=C\CCCCC(=O)O)c2cccnc2)cc1)[C@H]1OC[C@@H](C/C=C\CCC(=O)O)[C@@H](c2ccccc2O)O1
7.52

// returns reported pIC50 for input O=C(O)CCCCCO/N=C(\c1ccccc1)c1ccnnc1
5.42

// returns reported pIC50 for input O=C(O)CCc1cc(CCCS(=O)(=O)c2ccccc2)cc(Cc2cccnc2)c1
7.57

// returns reported pIC50 for input Cc1ccc(S(=O)(=O)NCC(CCCCCC(=O)O)c2cccnc2)cc1 (centres undefined)
7.30

// returns reported pIC50 for input O=C(O)CCC(CCCCNS(=O)(=O)c1ccc2ccccc2c1)CCCc1cccnc1 (centres undefined)
8.82

* * *

Target protein (sequence): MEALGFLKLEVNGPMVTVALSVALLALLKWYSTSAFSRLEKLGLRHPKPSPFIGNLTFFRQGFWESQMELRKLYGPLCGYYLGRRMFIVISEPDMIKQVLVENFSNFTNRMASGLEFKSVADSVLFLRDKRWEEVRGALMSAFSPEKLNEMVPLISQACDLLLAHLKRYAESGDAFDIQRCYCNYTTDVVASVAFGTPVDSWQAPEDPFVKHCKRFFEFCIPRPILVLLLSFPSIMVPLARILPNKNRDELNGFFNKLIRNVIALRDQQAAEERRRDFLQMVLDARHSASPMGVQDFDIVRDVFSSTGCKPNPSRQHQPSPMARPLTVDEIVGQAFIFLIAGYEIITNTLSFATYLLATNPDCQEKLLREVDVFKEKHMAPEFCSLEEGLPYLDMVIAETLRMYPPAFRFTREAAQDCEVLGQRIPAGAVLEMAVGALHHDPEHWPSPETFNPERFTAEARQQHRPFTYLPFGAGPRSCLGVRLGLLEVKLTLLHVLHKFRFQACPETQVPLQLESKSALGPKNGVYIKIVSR
Recorded log10 IC50 for compounds tested on the protein given by its sequence, drawn from a number of studies.
Record value = log10 of IC50 given in nM.

// returns reported log10 IC50 for input O=C(O)c1ccc2sc(Cn3ccnc3)cc2c1
1.18

// returns reported log10 IC50 for input NC(=O)c1ccc(OCCn2ccnc2)cc1
1.75

// returns reported log10 IC50 for input O=S(=O)(NCCCCC(CCCc1cccnc1)CCC1N=NN=N1)c1ccc(Cl)cc1 (stereo not given)
0.70

// returns reported log10 IC50 for input COc1ccc(S(=O)(=O)NCC(CCCCCC(=O)O)c2cccnc2)cc1 (stereo not given)
2.97

// returns reported log10 IC50 for input O=S(=O)(NCCCCC(CCCO)CCCc1cccnc1)c1ccc(Cl)cc1 (stereo not given)
1.85

// returns reported log10 IC50 for input CC(C)(O)Cc1ccc2c(c1)c1cc(OCCC3CC3)ccc1c1[nH]c(-c3c(C#N)cc(F)cc3C#N)nc21
4.48

// returns reported log10 IC50 for input O=C(O)CC[C@H](CCCCNS(=O)(=O)c1ccc(Cl)cc1)CCOc1cccnc1
0.54

// returns reported log10 IC50 for input O=C(O)CCCC/C=C(\c1ccc(-c2nc(C(=O)NCCc3ccccc3)co2)cc1)c1cccnc1
0.97

// returns reported log10 IC50 for input O=C(O)CCc1cc(CCS(=O)(=O)c2ccccc2)cc(Cc2cccnc2)c1
1.68

// returns reported log10 IC50 for input NC(=O)COc1ccc(OCCn2ccnc2)cc1
2.93

* * *

Recorded IC50 for compounds tested on the protein given by its sequence, drawn from a number of studies.
Sequence of the target: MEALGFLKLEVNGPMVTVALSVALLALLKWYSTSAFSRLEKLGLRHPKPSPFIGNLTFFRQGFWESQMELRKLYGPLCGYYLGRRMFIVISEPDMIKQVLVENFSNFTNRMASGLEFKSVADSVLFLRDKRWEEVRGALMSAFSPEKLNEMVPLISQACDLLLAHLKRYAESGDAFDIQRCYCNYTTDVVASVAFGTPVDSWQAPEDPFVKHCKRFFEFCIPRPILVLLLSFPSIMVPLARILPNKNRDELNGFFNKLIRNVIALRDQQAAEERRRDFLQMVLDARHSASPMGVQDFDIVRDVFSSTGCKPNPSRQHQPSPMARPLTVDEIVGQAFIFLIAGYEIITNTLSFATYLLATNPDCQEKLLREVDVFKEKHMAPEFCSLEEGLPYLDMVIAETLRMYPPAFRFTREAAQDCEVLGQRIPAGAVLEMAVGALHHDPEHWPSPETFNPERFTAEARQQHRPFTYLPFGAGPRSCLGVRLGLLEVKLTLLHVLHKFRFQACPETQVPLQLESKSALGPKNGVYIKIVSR

// returns reported IC50 for input COc1ccc(S(=O)(=O)NCCCCC(CCCc2cccnc2)CCC(=O)O)cc1 (stereo not given)
3 nM

// returns reported IC50 for input CN(CC(CCCCCC(=O)O)c1cccnc1)S(=O)(=O)c1ccc(Cl)cc1 (stereo not given)
> 10000 nM

// returns reported IC50 for input O=C(O)CC[C@@H](CCCCNS(=O)(=O)c1ccc(Cl)cc1)CCOc1cccnc1
13 nM

// returns reported IC50 for input O=C(O)CCCCO/N=C(\c1cccc(C(F)(F)F)c1)c1cccnn1
> 100000 nM

// returns reported IC50 for input O=C(O)c1csc2c(Cn3ccnc3)cccc12
34 nM

// returns reported IC50 for input CC(C)c1[nH]c2ccccc2c1Cn1ccnc1
15 nM

// returns reported IC50 for input O=C(O)COC(CCCCNS(=O)(=O)c1ccc(Cl)cc1)CCCc1cccnc1 (stereo not given)
18 nM

// returns reported IC50 for input O=C(O)CC/C=C\C[C@@H]1CO[C@H](c2ccc3cc(/C(=C\CCCCC(=O)O)c4cccnc4)ccc3c2)O[C@@H]1c1ccccc1O
50 nM

// returns reported IC50 for input O=C(O)CCCCCO/N=C(/c1ccccc1)c1cncnc1
> 10000 nM

// returns reported IC50 for input CC(C)N(CCc1ccc(/C(=C\CCCC(=O)O)c2cccnc2)cc1)S(=O)(=O)c1ccc(Cl)cc1
25 nM

* * *

Protein target, amino acids: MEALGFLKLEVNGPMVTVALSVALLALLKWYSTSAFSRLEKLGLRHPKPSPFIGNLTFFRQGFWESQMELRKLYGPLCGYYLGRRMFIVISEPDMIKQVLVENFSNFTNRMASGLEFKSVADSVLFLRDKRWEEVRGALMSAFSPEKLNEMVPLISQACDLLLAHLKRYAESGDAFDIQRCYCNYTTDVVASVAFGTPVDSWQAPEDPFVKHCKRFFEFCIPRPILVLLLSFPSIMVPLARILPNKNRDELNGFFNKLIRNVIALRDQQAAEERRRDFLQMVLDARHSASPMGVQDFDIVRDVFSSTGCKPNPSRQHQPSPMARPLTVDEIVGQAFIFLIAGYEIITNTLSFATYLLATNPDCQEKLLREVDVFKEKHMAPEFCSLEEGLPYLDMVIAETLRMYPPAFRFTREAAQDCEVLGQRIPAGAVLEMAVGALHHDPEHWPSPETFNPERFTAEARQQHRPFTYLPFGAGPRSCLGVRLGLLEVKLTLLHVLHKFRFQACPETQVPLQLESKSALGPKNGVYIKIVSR
Recorded log10 of IC50 for compounds tested on the protein given by its sequence, drawn from a number of studies.
Record value = log10 of IC50 given in nM.

Query log10 of IC50 on the protein given by its sequence for CN(C)S(=O)(=O)NCCc1cc(CCC(=O)O)cc(Cc2cccnc2)c1
1.34

Query log10 of IC50 on the protein given by its sequence for O=C(O)c1ccc2cc(Cn3ccnc3)ccc2c1
1.53

Query log10 of IC50 on the protein given by its sequence for O=C(O)CC[C@@H](CCCCNS(=O)(=O)c1ccc(Cl)cc1)CCCc1cccnc1
0.65

Query log10 of IC50 on the protein given by its sequence for FC(F)(F)c1ccc2c(Cn3ccnc3)c[nH]c2c1
3.66

Query log10 of IC50 on the protein given by its sequence for O=C(O)CC/C=C\C[C@@H]1CO[C@H](c2cccc(OCCOc3ccc(/C(=C\CCCCC(=O)O)c4cccnc4)cc3)c2)O[C@@H]1c1ccccc1O
1.60

Query log10 of IC50 on the protein given by its sequence for O=C(O)CCCCO/N=C(\c1ccccc1)c1ccnnc1
2.41

Query log10 of IC50 on the protein given by its sequence for O=C(O)CC/C=C\C[C@@H]1CO[C@H](c2ccc(/C(=C\CCCCC(=O)O)c3cccnc3)cc2)O[C@@H]1c1ccccc1O
1.60

Query log10 of IC50 on the protein given by its sequence for Cc1ccncc1CCCC(CCCCNS(=O)(=O)c1ccc(Cl)cc1)CCC(=O)O (stereo unspecified)
0.00
